Test: cytotoxicity toward NIH3T3 fibroblasts, dose response, counter-screen, cell-based, ATP luminescence, mouse fibroblasts (AID 2010);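 note: cells exposed to compound for about 90 hours before reading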
Assay type: functional
Active and inactive are the calls of the source. Cut-off read from the data, not from the text of the source: actives have a measured EC50 and inactives only a lower limit.
measured_property: EC50

Guide cases for EC50, answers given:
Problem: Please give the measured EC50 for this compound: `CCCCN(C)S(=O)(=O)c1ccc(C(=O)N(CCN(C)C)c2nc3ccc(C)cc3s2)cc1`
Result: > 60 µM (inconclusive)

Problem: // query: CCn1ncc(CN2CCCC(CNC(=O)c3ccc(F)cc3)C2)c1C (centres undefined)
Result: > 60 µM (not active)

Problem: // query: `CC1CCN(c2c([N+](=O)[O-])nn(-c3ccc4c(c3)OCCO4)[n+]2[O-])CC1`
Result: > 60 µM (not active)

Problem: // query: `O=C1c2cccc3cc([N+](=O)[O-])cc(c23)C(=O)N1c1ccccc1O`
Result: 9.05 µM (active)

Problem: // query: `O=[N+]([O-])c1cc(Cl)cc(/C=N\Nc2ccccn2)c1O`
Result: 5.6 µM (active)

Further cases:
Problem: Please give the measured EC50 for this compound: `CCCCCCCCCC(=O)N/N=C(\C)c1cccnc1`
Result: > 60 µM (not active)

Problem: // query: `CCCCc1c(CCC)c(=N)c2ccccc2n1C`
Result: > 60 µM (inconclusive)

Problem: // query: `CCN1CCN(c2ccc(S(=O)(=O)N3CCCCC3)cc2NC(=O)COc2ccc(F)cc2Cl)CC1`
Result: > 60 µM (not active)

Problem: // query: `C=CCn1c(O)c(N=NC(=S)Nc2ccc(OC)c(Cl)c2)c2ccccc21`
Result: 3.88 µM (active)

Data origin: ChEMBL document CHEMBL1201862
